# System: ACK (Homo sapiens)
# Construct: screened for activity against several kinases in Jurkat cells; endogenous in cells; host or cells: Jurkat cell lysate
# Sequence (Q07912 whole entry): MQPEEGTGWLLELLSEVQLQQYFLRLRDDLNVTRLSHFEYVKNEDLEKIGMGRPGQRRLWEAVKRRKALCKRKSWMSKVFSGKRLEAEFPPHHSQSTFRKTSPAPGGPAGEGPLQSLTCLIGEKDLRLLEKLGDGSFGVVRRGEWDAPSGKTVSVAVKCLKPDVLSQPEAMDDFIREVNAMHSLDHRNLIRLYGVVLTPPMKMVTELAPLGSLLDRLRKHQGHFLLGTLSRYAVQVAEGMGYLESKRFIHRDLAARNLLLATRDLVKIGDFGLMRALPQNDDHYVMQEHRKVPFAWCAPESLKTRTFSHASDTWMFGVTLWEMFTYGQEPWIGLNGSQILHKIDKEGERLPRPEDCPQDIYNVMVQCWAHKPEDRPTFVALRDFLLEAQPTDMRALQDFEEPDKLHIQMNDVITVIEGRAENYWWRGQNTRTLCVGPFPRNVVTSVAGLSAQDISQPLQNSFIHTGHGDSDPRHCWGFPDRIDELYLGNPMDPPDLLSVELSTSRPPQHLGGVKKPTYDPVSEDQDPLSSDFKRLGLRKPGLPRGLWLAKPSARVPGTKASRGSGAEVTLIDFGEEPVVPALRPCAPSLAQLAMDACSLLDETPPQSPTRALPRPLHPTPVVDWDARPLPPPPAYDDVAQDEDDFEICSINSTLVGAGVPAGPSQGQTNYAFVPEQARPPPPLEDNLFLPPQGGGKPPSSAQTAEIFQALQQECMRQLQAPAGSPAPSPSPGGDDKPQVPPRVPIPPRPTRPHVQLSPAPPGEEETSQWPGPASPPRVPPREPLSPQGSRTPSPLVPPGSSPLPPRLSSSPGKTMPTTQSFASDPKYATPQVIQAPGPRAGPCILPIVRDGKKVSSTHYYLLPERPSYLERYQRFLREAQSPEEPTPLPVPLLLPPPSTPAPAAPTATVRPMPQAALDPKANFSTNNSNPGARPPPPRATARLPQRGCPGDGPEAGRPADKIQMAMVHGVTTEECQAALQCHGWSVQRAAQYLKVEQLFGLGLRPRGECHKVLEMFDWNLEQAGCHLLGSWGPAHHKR
# Experiment: Probe-based (AX9989) kinase profiling in Jurkat lysate: ACK
# Format: binding
# Recorded Conditions: screening concentration 1 μM; read-out: ACK Inhibition % at indicated screening concentration
Measurement Kind: inhibition at 1 µM

> print(dat)
                                 chem.smiles  assay.value
 1  CCOc1cc(C(=O)N2CCN(C(C)=O)CC2)ccc1Nc1cc2c(cn1)N(C)C(=O)c1scnc1N2C        ≤ 35%
 2  CN1C(=O)c2ccccc2N(S(C)(=O)=O)c2cc(N[C@H]3CC[C@H](O)CC3)ncc21        ≤ 35%
 3  CN1CCN([C@@H]2CCN(C(=O)c3ccc(Nc4cc5c(cn4)N(C)C(=O)c4ccccc4N5C)c(OC(F)F)c3)C2)CC1        ≤ 35%
 4  CCOc1cc(C(=O)N2CCN(c3cccnc3)CC2)ccc1Nc1cc2c(cn1)N(C)C(=O)c1occc1N2C        ≤ 35%
 5  CCOc1cc(C(=O)N2CCC(N3CCCC3)CC2)ccc1Nc1cc2c(cn1)N(C)C(=O)c1scnc1N2C        ≤ 35%
 6  CCOc1cc(C(=O)N(C)[C@H]2CC[C@H](O)CC2)ccc1Nc1cc2c(cn1)N(C)C(=O)c1ccccc1N2C        ≤ 35%
 7  CN1C(=O)c2ccccc2N(C)c2cc(Nc3ccc(C(=O)N4CCN(S(C)(=O)=O)CC4)cc3F)ncc21        ≤ 35%
 8  CCOc1cc(C(=O)N2CC[C@@H](N3CCN(C)CC3)C2)ccc1Nc1cc2c(cn1)N(C)C(=O)c1scnc1N2C        ≤ 35%
 9  CN1CCN([C@@H]2CCN(C(=O)c3ccc(Nc4cc5c(cn4)N(C)C(=O)c4ccccc4N5C)c(F)c3)C2)CC1    35 to 50%
10  CCOc1cc(C(=O)N2CCC(N3CC[C@H](O)C3)CC2)ccc1Nc1cc2c(cn1)N(C)C(=O)c1ccccc1N2C        ≤ 35%
11  CC(C)Oc1cc(C(=O)N2CCN(C3CCN(C)CC3)CC2)ccc1Nc1cc2c(cn1)N(C)C(=O)c1ccccc1N2C        ≤ 35%
12  CCOc1cc(C(=O)N2CC[C@@H](NCCF)C2)ccc1Nc1cc2c(cn1)N(C)C(=O)c1ccccc1N2C        ≤ 35%
13  CCOc1cc(C(=O)N2CCOCC2)ccc1Nc1cc2c(cn1)N(C)C(=O)c1ccccc1S2        ≤ 35%
14  CCOc1cc(C(=O)N2CCC(N3CCN(C)CC3)CC2)ccc1Nc1cc2c(cn1)N(C)C(=O)c1ccccc1N2S(C)(=O)=O        ≤ 35%
15  CCOc1cc(C(=O)N[C@H]2CC[C@@H](O)CC2)ccc1Nc1cc2c(cn1)N(C)C(=O)c1ccccc1N2C        ≤ 35%
16  CN1CCC(N2CCN(C(=O)c3ccc(Nc4cc5c(cn4)N(C)C(=O)c4ccccc4N5C)c(F)c3)CC2)CC1        ≤ 35%

---

# System: BRD4 bromodomain domain I [BRD4(1)] (Homo sapiens, UniProt O60885)
# Construct: BRD4 bromodomain domain I [BRD4(1)]; purchased Cayman Chemicals
# Experiment: BRD4 bromodomain domain 1 inhibition assay (TR-FRET)
# Assay type: binding
# Recorded Conditions: screening concentration 10 μM
# Method: The inhibitory activity of test compounds on the bromodomain, BRD4 bromodomain domain I [BRD4(1)], were determined via TR-FRET after a slight modification of the manufacturer's protocol (Cayman Chemicals, Ann Arbor, Mich.). Briefly, compounds were diluted to a 20× ([…]) concentration in DMSO. […] The fluorescence was read in a time-resolved format on the Biotec Synergy 2 plate reader by exciting the signal at 340 nm and reading emissions at 620 and 670, using a 100 μs delay and 200 μs read window. […]
inhibition at 10 µM: recorded values
Measurement Kind: inhibition at 10 µM

> print(dat)
                                   compound  assay.value
1  CCOc1cc(C(=O)N2CCN(c3cccnc3)CC2)ccc1Nc1cc2c(cn1)N(C)C(=O)c1occc1N2C    70 to 85%
2  CCOc1cc(C(=O)N2CCC(N3CCCC3)C2)ccc1Nc1cc2c(cn1)N(C)C(=O)c1occc1N2C (stereo not shown)        > 85%
3  CCN(CC)CCNC(=O)c1cccc(Nc2cc3c(cn2)N(C)C(=O)c2ccccc2N3C)c1OC        < 70%
4  CCOc1cc(C(=O)N2CCN(C(C)=O)CC2)ccc1Nc1cc2c(cn1)N(C)C(=O)c1ccccc1N2C    70 to 85%
5  CCOc1cc(C(=O)NCCn2ccnc2)ccc1Nc1cc2c(cn1)N(C)C(=O)c1ccccc1N2C        < 70%
6  CCOc1cc(C(=O)N2CCC(NC3CCN(C)CC3)C2)ccc1Nc1cc2c(cn1)N(C)C(=O)c1ccccc1N2C (stereo not shown)        > 85%
7  CCOc1cc(C(=O)NCCCN(CC)CC)ccc1Nc1cc2c(cn1)N(C)C(=O)c1ccccc1N2C        > 85%
